System: M. mycetomatis genome strain MM55
Experiment: CLSI M38-A2 based in vitro susceptibility screening (XTT or resazurin), growth at fixed concentration
Format: cell-based, Madurella mycetomatis
Details: Madurella mycetomatis, 25 uM, replicate A, M. mycetomatis MM55; read-out: Percentage survival at 25um, 25 um A
Respond with Fulfilled for activity at 25 µM values of 70% and above, Not fulfilled for values below.

compound	assigned.label
CC(C)(C)OC(=O)NCc1ccc(C(=O)N[C@H]2CCOC2=O)cc1 [MMV1581547]	Fulfilled
CCCC(=O)OCCc1ccccc1 [MMV1578899]	Fulfilled
Cc1c(N)cccc1Cn1ccc(OCCc2cccs2)cc1=O [MMV1578557]	Fulfilled
OCCCCn1cnc2c(O)nc(NCc3ccc(Cl)c(Cl)c3)nc21 [MMV1593542]	Fulfilled
O=S(=O)(Nc1cccc2cccnc12)c1ccccc1 [MMV1578890]	Not fulfilled
CC[C@H]1OC(=O)[C@H](C)[C@@H](O[C@H]2C[C@@](C)(OC)[C@@H](O)[C@H](C)O2)[C@H](C)[C@@H](O[C@@H]2O[C@H](C)C[C@H](N(C)C)[C@H]2O)[C@](C)(O)C[C@@H](C)C(=O)[C@H](C)[C@@H](O)[C@]1(C)O [MMV003137]	Fulfilled
O=C(Nc1ccc(Cl)c(C(F)(F)F)c1)C(CCCl)C(=O)Nc1ccc(Cl)c(C(F)(F)F)c1 [MMV1580840]	Not fulfilled
CC(C)=CCC/C(C)=C/CNCCNC1C2CC3CC(C2)CC1C3 (centres unmarked) [MMV687273]	Not fulfilled

====

Some compounds, each annotated with its measured activity at 100 µM.
Tested on: M. mycetomatis genome strain MM55
Experiment: CLSI M38-A2 based in vitro susceptibility screening (XTT or resazurin), growth at fixed concentration
Format: cell-based, Madurella mycetomatis
Settings: Madurella mycetomatis, 100 uM, replicate 3, MM55; read-out: Percentage survival at 100um, 100 uM A

compound	activity at 100 µM
CC(C)(C)NC(=O)[C@@H]1CN(Cc2cnc3occc3c2)CCN1C[C@@H](O)C[C@@H](Cc1ccccc1)C(=O)N[C@H]1c2ccccc2C[C@H]1O [MMV1782353]	77.2%
C=C(C)[C@@H]1CC[C@]2(C(=O)O)CC[C@]3(C)[C@H](CC[C@@H]4[C@@]5(C)CC[C@H](O)C(C)(C)[C@@H]5CC[C@]43C)[C@@H]12 [MMV638198]	74.7%
COCCn1cnc2c(=O)[nH]c(Nc3ccccc3)nc21 [MMV1782103]	77.5%

====

System: M. mycetomatis MM55
Test: IC50 determination, 2-fold dilution series 16 to 0.03125 μM
Format: cell-based, Madurella mycetomatis
Details: Madurella mycetomatis, MM55, Table 2; M. mycetomatis MM55; read-out: IC50
pIC50: −log10 of the molar value.
pIC50 vs 6: at or above is satisfied, below is not satisfied.

molecule	test.target	assigned.label
N#C/C(=C1/SC[C@@H](c2ccc(Cl)cc2Cl)S1)n1ccnc1 [MMV1782224, Luliconazole, reference compound]	M. mycetomatis MM55	satisfied
Cc1cc(-c2ccccc2)c(C(=O)C(=O)Nc2ccc(N3CCN(c4ncc(F)cn4)CC3)cc2)n1C	M. mycetomatis MM55	satisfied
Oc1c(C(Nc2nc3ccccc3s2)c2ccc(OC(F)F)cc2)ccc2cccnc12 (stereo not shown)	M. mycetomatis MM55	not satisfied
O=S(=O)(Nc1ccc(-n2cccc2)cc1)c1ccc(Cl)c(Cl)c1	M. mycetomatis MM55	not satisfied
CC(=O)N1CCN(c2ccc(OCC3COC(Cn4ccnc4)(c4ccc(Cl)cc4Cl)O3)cc2)CC1 (stereo not shown) [MMV637533, Ketoconazole, reference compound]	M. mycetomatis MM55	satisfied
O[C@@](Cn1cnnn1)(c1ccc(F)cc1F)C(F)(F)c1ccc(-c2ccc(OCC(F)(F)F)cc2)cn1 [MMV1634386, Oteseconazole, reference compound]	M. mycetomatis MM55	not satisfied

From: paper PMC8815882
